Conditions: mouse
Where a SMILES comes first, the peptide text is derived from it. [ ]: non-standard residue; d: D form. NMeY = CN[C@@H](Cc1ccc(O)cc1)C(=O)O; NMeL = CN[C@@H](CC(C)C)C(=O)O; dNMeL = CN[C@H](CC(C)C)C(=O)O
Result type: class for in vivo CL in mice

INSERT INTO assay_data (compound, result) VALUES
  ('CC(C)C[C@@H]1NC(=O)[C@H](Cc2ccccc2)NC(=O)[C@H]2CCCN2C(=O)[C@H](CC(C)C)NC(=O)[C@H](CC(C)C)N(C)C(=O)[C@@H](CC(C)C)N(C)C1=O [(3), [Phe-Leu-NMe-D-Leu-NMe-Leu-Leu-D-Pro]] (cyclo(FL[dNMeL][NMeL]L[dP]))', 'low CL'),
  ('CC(C)C[C@@H]1NC(=O)[C@H](C)NC(=O)[C@H]2CCCN2C(=O)[C@H](CC(C)C)NC(=O)[C@H](CC(C)C)N(C)C(=O)[C@@H](CC(C)C)N(C)C1=O [(5), [Ala-Leu-NMe-D-Leu-NMe-Leu-Leu-D-Pro]] (cyclo(AL[dNMeL][NMeL]L[dP]))', 'high CL'),
  ('CC(C)C[C@@H]1NC(=O)[C@H](Cc2ccc(O)cc2)NC(=O)[C@H]2CCCN2C(=O)[C@H](CC(C)C)NC(=O)[C@H](CC(C)C)NC(=O)[C@@H](CC(C)C)NC1=O [(1), [Tyr-Leu-D-Leu-Leu-Leu-D-Pro-]] (cyclo(LL[dP]YL[dL]))', 'high CL'),
  ('CC(C)C[C@@H]1NC(=O)[C@H](Cc2ccc(O)cc2)N(C)C(=O)[C@H]2CCCN2C(=O)[C@H](CC(C)C)NC(=O)[C@H](CC(C)C)N(C)C(=O)[C@@H](CC(C)C)N(C)C1=O [(2)] (cyclo(L[dNMeL][NMeL]L[dP][NMeY]))', 'low CL');

---

Conditions: rat, in vivo, iv, 3 mg/kg
Where a SMILES comes first, the peptide text is derived from it. [ ]: non-standard residue; d: D form. NMeL = CN[C@@H](CC(C)C)C(=O)O; dNMeL = CN[C@H](CC(C)C)C(=O)O; Abu = CC[C@H](N)C(=O)O
Result type: clearance (mL/min/kg)
Answer format: numeric, mL/min/kg implied, no suffix.

INSERT INTO results (compound, numeric_readout) VALUES
  ('CC(C)C[C@@H]1NC(=O)[C@H](C)NC(=O)[C@H]2CCCN2C(=O)[C@H](CC(C)C)NC(=O)[C@H](CC(C)C)N(C)C(=O)[C@@H](CC(C)C)N(C)C1=O [(5), [Ala-Leu-NMe-D-Leu-NMe-Leu-Leu-D-Pro]] (cyclo(AL[dNMeL][NMeL]L[dP]))', 70);

Task: Query (compound): CC[C@@H]1NC(=O)[C@H]2CCCN2C(=O)[C@H](CC(C)C)NC(=O)[C@H](CC(C)C)N(C)C(=O)[C@@H](CC(C)C)N(C)C(=O)[C@H](CC(C)C)NC1=O [(4), [Abu-Leu-NMe-D-Leu-NMe-Leu-Leu-D-Pro]] (cyclo([Abu]L[dNMeL][NMeL]L[dP])) ; field requested: clearance
Output: 41

---

Conditions: mouse, in vivo, iv, 1 mg/kg
Where a SMILES comes first, the peptide text is derived from it. [ ]: non-standard residue; d: D form. NMeL = CN[C@@H](CC(C)C)C(=O)O; dNMeL = CN[C@H](CC(C)C)C(=O)O; Abu = CC[C@H](N)C(=O)O
Result type: Vd (L/kg)
Dear colleague, please return just the value in L/kg, with no unit written.

INSERT INTO results (molecule, readout_unit, numeric_readout) VALUES
  ('CC(C)C[C@@H]1NC(=O)[C@H](C)NC(=O)[C@H]2CCCN2C(=O)[C@H](CC(C)C)NC(=O)[C@H](CC(C)C)N(C)C(=O)[C@@H](CC(C)C)N(C)C1=O [(5), [Ala-Leu-NMe-D-Leu-NMe-Leu-Leu-D-Pro]] (cyclo(AL[dNMeL][NMeL]L[dP]))', 'L/kg', 2.8),
  ('CC(C)C[C@@H]1NC(=O)[C@H](Cc2ccccc2)NC(=O)[C@H]2CCCN2C(=O)[C@H](CC(C)C)NC(=O)[C@H](CC(C)C)N(C)C(=O)[C@@H](CC(C)C)N(C)C1=O [(3), [Phe-Leu-NMe-D-Leu-NMe-Leu-Leu-D-Pro]] (cyclo(FL[dNMeL][NMeL]L[dP]))', 'L/kg', 0.6);

Turning to the following molecule.
Task: Record request: Vd value, item CC[C@@H]1NC(=O)[C@H]2CCCN2C(=O)[C@H](CC(C)C)NC(=O)[C@H](CC(C)C)N(C)C(=O)[C@@H](CC(C)C)N(C)C(=O)[C@H](CC(C)C)NC1=O [(4), [Abu-Leu-NMe-D-Leu-NMe-Leu-Leu-D-Pro]] (cyclo([Abu]L[dNMeL][NMeL]L[dP]))
Output: 2.1

---

Conditions: mouse, in vivo, po, 7.5 mg/kg
Where a SMILES comes first, the peptide text is derived from it. [ ]: non-standard residue; d: D form. NMeL = CN[C@@H](CC(C)C)C(=O)O; dNMeL = CN[C@H](CC(C)C)C(=O)O
Result type: Tmax (min)
Please state the figure in min; there is no need to write the unit.

Task: What value of Tmax has been reported for the following compound? CC(C)C[C@@H]1NC(=O)[C@H](Cc2ccccc2)NC(=O)[C@H]2CCCN2C(=O)[C@H](CC(C)C)NC(=O)[C@H](CC(C)C)N(C)C(=O)[C@@H](CC(C)C)N(C)C1=O [(3), [Phe-Leu-NMe-D-Leu-NMe-Leu-Leu-D-Pro]] (cyclo(FL[dNMeL][NMeL]L[dP]))
Output: 18

---

Assay: Supercritical fluid chromatography (SFC) retention, exposed polarity
Type: physicochemical
Settings: Chirex 3014 column, reflects exposure of polar groups
Source text: Conditions for analytical supercritical fluid chromatography (SFC) were taken from previous publications (Goetz et al. [2014a], [b]). The Pirkle chiral stationary phase Chirex 3014, a silica bonded (S)-valine and (R)-1-(α-naphthyl)ethylamine with a urea linkage, was selected. A mobile phase of 15% methanol in supercritical CO2 enabled adequate separation in combination with a low-slope gradient. […]
Where a SMILES comes first, the peptide text is derived from it. [ ]: non-standard residue; d: D form. NMeY = CN[C@@H](Cc1ccc(O)cc1)C(=O)O; NMeL = CN[C@@H](CC(C)C)C(=O)O; dNMeL = CN[C@H](CC(C)C)C(=O)O; Abu = CC[C@H](N)C(=O)O
Entries whose SFC is below 3 min take TRUE; entries at or above 3 min take FALSE.

# example entries with known answers
INSERT INTO measurements (compound, group) VALUES
  ('CC[C@@H]1NC(=O)[C@H]2CCCN2C(=O)[C@H](CC(C)C)NC(=O)[C@H](CC(C)C)N(C)C(=O)[C@@H](CC(C)C)N(C)C(=O)[C@H](CC(C)C)NC1=O [(4), [Abu-Leu-NMe-D-Leu-NMe-Leu-Leu-D-Pro]] (cyclo([Abu]L[dNMeL][NMeL]L[dP]))', 'TRUE'),
  ('CC(C)C[C@@H]1NC(=O)[C@H](Cc2ccccc2)NC(=O)[C@H]2CCCN2C(=O)[C@H](CC(C)C)NC(=O)[C@H](CC(C)C)N(C)C(=O)[C@@H](CC(C)C)N(C)C1=O [(3), [Phe-Leu-NMe-D-Leu-NMe-Leu-Leu-D-Pro]] (cyclo(FL[dNMeL][NMeL]L[dP]))', 'TRUE'),
  ('CC(C)C[C@@H]1NC(=O)[C@H](C)NC(=O)[C@H]2CCCN2C(=O)[C@H](CC(C)C)NC(=O)[C@H](CC(C)C)N(C)C(=O)[C@@H](CC(C)C)N(C)C1=O [(5), [Ala-Leu-NMe-D-Leu-NMe-Leu-Leu-D-Pro]] (cyclo(AL[dNMeL][NMeL]L[dP]))', 'TRUE'),
  ('CC(C)C[C@@H]1NC(=O)[C@H](Cc2ccc(O)cc2)N(C)C(=O)[C@H]2CCCN2C(=O)[C@H](CC(C)C)NC(=O)[C@H](CC(C)C)N(C)C(=O)[C@@H](CC(C)C)N(C)C1=O [(2)] (cyclo(L[dNMeL][NMeL]L[dP][NMeY]))', 'FALSE');

Would you kindly look at the next entry?
Task: Is it true that SFC reported for CC(C)C[C@@H]1NC(=O)[C@H](Cc2ccc(O)cc2)NC(=O)[C@H]2CCCN2C(=O)[C@H](CC(C)C)NC(=O)[C@H](CC(C)C)NC(=O)[C@@H](CC(C)C)NC1=O [(1), [Tyr-Leu-D-Leu-Leu-Leu-D-Pro-]] (cyclo(LL[dP]YL[dL])) is less than 3 min?
Output: FALSE

Data origin: paper PMC5838147
